Below, each of the molecules is paired with its reported PD-L1 Fold change to WT CD80 value.
biological target: huPD-L1 (Homo sapiens, UniProt Q9NZQ7); assay: Flow binding to CHO cells stably expressing PD-L1; set-up: huCTLA4 and huPD-L1, full-length mammalian surface expression constructs were generated; expressed in transfected cells; host or cells: CHO cells, lentiviral transduction, sorted to >98% purity; conditions: Table E10; 33.3 nM; relative to CD80 WT IgV-Fc
Sequence (Q9NZQ7 19-290): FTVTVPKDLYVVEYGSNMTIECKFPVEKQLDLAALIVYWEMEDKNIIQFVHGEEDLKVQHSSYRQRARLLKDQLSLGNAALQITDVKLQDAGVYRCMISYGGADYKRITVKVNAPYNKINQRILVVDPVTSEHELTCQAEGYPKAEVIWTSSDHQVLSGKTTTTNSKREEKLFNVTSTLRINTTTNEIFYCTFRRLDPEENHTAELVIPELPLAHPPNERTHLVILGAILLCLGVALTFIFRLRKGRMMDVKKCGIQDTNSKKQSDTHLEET
Answer using only a numeral; do not append any unit.

E35D/M47I/N48K/I61F (protein) VIHVTKEVKEVATLSCGHNVSVEELAQTRIYWQKDKKMVLTMMSGDIKIWPEYKNRTIFDFTNNLSIVILALRPSDEGTYECVVLKYEKDAFKREHLAEVTLSVKAD	80.0
E35D/M47V (protein) VIHVTKEVKEVATLSCGHNVSVEELAQTRIYWQKDKKMVLTMMSGDVNIWPEYKNRTIFDITNNLSIVILALRPSDEGTYECVVLKYEKDAFKREHLAEVTLSVKAD	41.7
E35D/D46E/M47I (protein) VIHVTKEVKEVATLSCGHNVSVEELAQTRIYWQKDKKMVLTMMSGEINIWPEYKNRTIFDITNNLSIVILALRPSDEGTYECVVLKYEKDAFKREHLAEVTLSVKAD	53.9

Consider the additional molecule presented here.
Input: Param item = Q27H/E35D/M47I (protein) VIHVTKEVKEVATLSCGHNVSVEELAHTRIYWQKDKKMVLTMMSGDINIWPEYKNRTIFDITNNLSIVILALRPSDEGTYECVVLKYEKDAFKREHLAEVTLSVKAD ; retrieve measured PD-L1 Fold change to WT CD80.
Output: 48.7
